System: AncSZ;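 note: 11-residue human phosphosite peptides and single-mutation variants displayed on the E. coli surface, counted by deep sequencing, each peptide's frequency after selection divided by its frequency in the unselected input library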;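 note: frequency after pTyr selection over input frequency; kinase dosed for 20-30% of maximal phosphorylation in three min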
EXPERIMENT SUMMARY: phosphorylation enrichment, bacterial display (enrichment ratio); higher = better substrate or ligand; peptides without Tyr show the background
METRIC: phosphorylation enrichment
Just the number, please, no unit after it.

Worked cases, answers included:
KILGRYYETGS [PAX2_Y72]	0.641
SYMVRYNQPRV [GRIN2D_Y736]	0.721
FPSLPYSPVSS [CAMKK2_Y128_C123Y_YF]	0.789

Next sequence, please.
Q: Form field: reported phosphorylation enrichment of VTSLKYSTSPF [BRIP1_Y916_YF]
Result: 0.605

====

SYSTEM TESTED: Grb2 SH2 (UniProt P62993)
Sequence (P62993 whole entry, looked up): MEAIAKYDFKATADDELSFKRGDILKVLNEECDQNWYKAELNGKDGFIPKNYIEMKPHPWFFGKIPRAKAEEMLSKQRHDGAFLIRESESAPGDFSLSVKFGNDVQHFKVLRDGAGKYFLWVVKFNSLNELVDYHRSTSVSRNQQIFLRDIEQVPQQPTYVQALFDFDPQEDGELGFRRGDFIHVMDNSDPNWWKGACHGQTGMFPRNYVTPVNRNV
EXPERIMENT SUMMARY: SH2 binding enrichment of the phosphorylated peptide, bacterial display (enrichment ratio); higher = better substrate or ligand; peptides without Tyr show the background
SH2 binding enrichment reference
Just the number, please, no unit after it.

HSGIFYKPESL [L2HGDH_Y103_YF]	0.641
GHMFAYDWISI [BEST1_Y227_L224M_YF]	1.25
LKKLEYLNLAL [LRRC6_Y70]	2.59
THQKSYQPGRK [CEFIP_Y210_N208K]	0.887
ETMNKYDLSGR [MYEF2_Y164]	0.912
LVVFEYMRHGD [NTRK1_Y591_M587V]	1.2
MDQAEYQAKIQ [DHX58_Y518_R523Q]	0.744
PDKRIYQFTAA [SKAP2_Y197]	0.82

Q: Can you look up SH2 binding enrichment on Grb2 SH2 (UniProt P62993) for ADRLEYSRTGL [MMUT_Y287_G284R] ?
Result: 0.859

Q: Can you look up SH2 binding enrichment on Grb2 SH2 (UniProt P62993) for IVAEFYDNLPH [DEGS1_Y284_A280V_YF] ?
Result: 0.727

Q: Can you look up SH2 binding enrichment on Grb2 SH2 (UniProt P62993) for FQRLRYIKQLG [SAMHD1_Y146] ?
Result: 0.813
